In this section, each of the molecules is paired with its reported Modal MIC.
system: S. aureus (MRSA) 1199B; test: microbe, parasite or virus in culture; format: cell-based, Staphylococcus aureus; details: S. aureus (MRSA) 1199B (R); shown in µM
Where a SMILES comes first, the peptide text is derived from it.
readoutName: Modal MIC (µM)

1. CC[C@H](C)[C@H](NC(=O)[C@H](CCCCN)NC(=O)[C@H](CCC(=O)O)NC(=O)[C@H](Cc1c[nH]c2ccccc12)NC(=O)[C@H](Cc1ccccc1)NC(=O)[C@H](CCCCN)NC(=O)CNC(=O)[C@H](CC(C)C)NC(=O)[C@H](C)N)C(=O)N[C@@H](CCCCN)C(=O)N[C@@H](CO)C(=O)N[C@@H](CC(C)C)C(=O)N[C@@H](Cc1ccccc1)C(N)=O [A1F5K8-IsCTa] (H-ALGKFWEKIKSLF-NH2) = 5
2. CC[C@H](C)[C@H](N)C(=O)N[C@@H](CC(C)C)C(=O)N[C@@H](CCCCN)C(=O)N[C@@H](CCCCN)C(=O)N[C@H](C(=O)N[C@@H](Cc1c[nH]c2ccccc12)C(=O)N[C@@H](CCC(=O)O)C(=O)NCC(=O)N[C@H](C(=O)N[C@@H](CCCCN)C(=O)N[C@@H](CO)C(=O)N[C@@H](CC(C)C)C(=O)N[C@@H](Cc1ccccc1)C(N)=O)[C@@H](C)CC)[C@@H](C)CC [K3-IsCTa] (H-ILKKIWEGIKSLF-NH2) = 5
